biological target: T1, SARS-CoV-2 Spike S1 domain ΔHV69/70, Y453F, D614G (SARS-CoV-2, UniProt P0DTC2 16-685); assay: HTRF, soluble S1 construct
T1 construct: domain: S1; also called Denmark (ΔHV69/70, Y453F, D614G); DHV69/70, Y453F, D614G
Decide by fold over background: equal to or exceeding 7 fold over background means MET, less means NOT MET.

Exam item: Could you tell me if the measured fold over background of PR201_00151 (antibody, V domains shown) VH: RVTLRESGPALVKPTQTLTLTCTFSGFSLNTSGMCVSWIRQPPGKALEWLARIDWDDDKYYSTSLETRLTISKDTSKNQVVLTMTNLDPVDTGTYYCARISIQSRGGGADYWGQGTLVTVSS VL: DIQMTQSPSSLSASVGDRVTITCRASQSISSYLHWYQQKSGKAPKLLIFVASTLQSGVPSRFSGSGSGTDFTLTISSLQPEDSAAYYCQQSYSPPWTFGQGTKVEIK reaches 7 fold over background or more?
Marked response: NOT MET

Exam item: Could you tell me if the measured fold over background of PR194_00292 (antibody, V domains shown) VH: QVQLQQWGAGLLKPSETLSLTCAVYGGSLSGYYWSWIRQPPGKGLEWIGEINHSGSTNHNPSLKSRVSISVDTSKNQFSLKLSSVTAADTAVYYCARAWKYSSSWYSGGIYYGMDVWGQGTTVTVSS VL: QSALTQPASVSGSPGQSITISCSGTSSDVGSYNLVSWYQQHPGKAPKLMIYEGTKRPSGVSNRFSSSKSGNTASLTISGLQAEDEADYYCCSYAGFSTWVFGGGTKLTVL reaches 7 fold over background or more?
Marked response: NOT MET

Exam item: Kindly determine if fold over background recorded for PR197_00647 (antibody, V domains shown) VH: QVQLVESGGGVVQPGRSLRLSCAASGFTFSSYAMHWVRQAPGKGLQWVTLISYDGGDKYYADSVRGRFTISRDNSKNTLYLQMNSLRTEDTAVYYCARDRPQTGDWFPPIPTGVLDVWGQGTTVTVSS VL: DIQMTQSPSSLSASVGDRVTITCRASQGISNYLAWFQQKPGKAPKSLIYAASSLQSGVPSRFSGSESGTDFTLTISSLQPEDFATYYCQQYHSYPITFGQGTRLEIK is above or exactly 7 fold over background.
Marked response: NOT MET

Exam item: State whether the measured fold over background reaches 7 fold over background, counting equality as reaching it, for PR193_00018 (antibody, V domains shown, also called IMM20184; IMM200184) VH: EVQLVESGGGLVQPGGSLRLSCSASGFTFSSFWMSWVRQAPGKGLEWVATIREDGSEKYYVDSVKGRFSISRDNAKNSLYLQMNSLRAEDTAVYYCARSKWLRGSFDYWGQGTLVTVSS VL: NFMLTQPHSVSESPGKTVTISCTRRSGSIASNYVQWYQQRPGSAPTTVIYEDNQRPSGVPDRFSGSIDSSSNSASLTISGLQTEDEADYYCQSYDSSNPPGASWVFGGGTKLTVL
Marked response: NOT MET

Exam item: Say whether PR199_00255 (antibody, V domains shown, also called IMM20279; PR190_00255) VH: QVQLVESGGGVVQPGRSLRLSCAASGFTFSTYGMHWVRQAPGKGLEWVAVIWYNGINKHYADSVKGRFTISRDNSKNTLYLQMSSLRVEDTAVYYCARDWGTLTTLFDFWGQGTLVTVSS VL: DIQMTQSPSSLSASVGERATITCRASQSISSHLNWYQQKPGKAPKFLIYGASSLQSGVPSRFSGSGSGTDFTLTISSLQPEDFATYYCQQSYSTPPWTFGQGTKVEIK shows fold over background of 7 fold over background or more.
Marked response: MET

Exam item: Entry PR194_00232 (antibody, V domains shown, also called IMM20190; PR194_00190) VH: EVQLVESGGGLVQPGGSLRLSCSASGFTVSSNYMSWVRQAPRKGLEWVSVIYAGGSTFYADSVKGRFTISRDNSKNTLLLQMNSLRAEDTAVYYCARDRGGYLDYWGQGTLVTVSS VL: DIQMTQSPSSLSASVGDRVTITCRASQGISNYLAWYQQKPGKVPKLLIYAASTLQSGVPSRFSGSGSGTDFTLTISSLQPEDVATYYCQKYNSAPGLTFGGGTKVEIK : is its fold over background no less than 7 fold over background?
Marked response: MET
